Collected pIC50 values appear next to each entry.
Target: PLK2 (Homo sapiens)
Sequence (Q9NYY3 whole entry): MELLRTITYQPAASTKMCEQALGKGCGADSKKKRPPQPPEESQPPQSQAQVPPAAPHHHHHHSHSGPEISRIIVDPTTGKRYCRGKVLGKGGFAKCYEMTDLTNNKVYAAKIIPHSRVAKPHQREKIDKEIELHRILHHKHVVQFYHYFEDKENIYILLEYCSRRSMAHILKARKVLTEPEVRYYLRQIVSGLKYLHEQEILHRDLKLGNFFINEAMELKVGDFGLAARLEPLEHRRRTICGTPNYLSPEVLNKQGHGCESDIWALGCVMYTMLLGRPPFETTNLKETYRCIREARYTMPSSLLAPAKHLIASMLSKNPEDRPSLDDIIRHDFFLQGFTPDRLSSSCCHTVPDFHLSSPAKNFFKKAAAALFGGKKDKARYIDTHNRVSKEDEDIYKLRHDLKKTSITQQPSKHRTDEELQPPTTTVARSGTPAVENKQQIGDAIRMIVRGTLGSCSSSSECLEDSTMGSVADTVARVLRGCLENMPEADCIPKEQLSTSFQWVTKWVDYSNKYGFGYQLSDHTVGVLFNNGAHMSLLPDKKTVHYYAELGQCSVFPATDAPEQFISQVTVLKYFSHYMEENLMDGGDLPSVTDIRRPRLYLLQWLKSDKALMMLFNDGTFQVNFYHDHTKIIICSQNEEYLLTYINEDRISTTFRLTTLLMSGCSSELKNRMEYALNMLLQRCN
Run Description: PLK TR-FRET peptide assay, PLK2
Type: biochemical
Experimental Setup: PLK TR-FRET peptide assay, GST-PLK2, 60 min reaction; read-out: Plk2 IC50
pIC50: −log10 of the molar value.
Property Measured: pIC50

Compound	Recorded Measurement
CC[C@@H]1C(=O)N(C)c2cnc(-c3ccncc3NC(=O)CC(C)(C)C)nc2N1C(C)C [Example 103]	4.30 to 5.00
CC[C@@H]1C(=O)N(C)c2cnc(-c3cc4ccccc4[nH]3)nc2N1C1CCCC1 [Example 9]	5.00 to 6.00
CCC12CCCCN1c1nc(-n3ccnc3-c3cc(F)c(F)c(F)c3)ncc1N(C)C2=O (racemic) [Example 256]	> 6.00
CC[C@@H]1C(=O)N(C)c2cnc(-c3ccnc(NC)c3)nc2N1C1CCCC1 [Example 20]	> 6.00
CC[C@@H]1C(=O)N(C)c2cnc(-n3ccnc3-c3cc(F)cc(C(F)(F)F)c3)nc2N1C1CCC1 [Example 174]	> 6.00
CC[C@@H]1C(=O)N(C)c2cnc(-n3ccnc3-c3ccncc3)nc2N1C(C)C [Example 150]	> 6.00
CC[C@]12CCCCN1c1nc(-n3ccnc3-c3cccc(F)c3)ncc1N(C)C2=O [Example 265]	4.30 to 5.00
CC[C@]12CCCCN1c1nc(-n3ccnc3-c3ccc(F)cc3F)ncc1N(C)C2=O [Example 270]	4.30 to 5.00
CC[C@@]12CCCCN1c1nc(-n3ccnc3-c3cccc(F)c3)ncc1N(C)C2=O [Example 264]	> 6.00
CC[C@@H]1C(=O)N(C)c2cnc(-n3ccnc3-c3ccc(F)cc3)nc2N1C(C)C [Example 212]	> 6.00
CC[C@@H]1C(=O)N(C)c2cnc(-n3ccnc3C(F)(F)F)nc2N1C1CCCC1 [Example 352]	> 6.00
CC(C)N1c2nc(-n3ccnc3-c3ccccc3)ncc2N(C)C(=O)C12CCC2 [Example 289]	> 6.00
CC[C@@]12CCCCN1c1nc(-n3ccnc3)ncc1N(C)C2=O [Example 286]	5.00 to 6.00
CC[C@@H]1C(=O)N(C)c2cnc(-c3cn[nH]c3-c3cscn3)nc2N1C1CCCC1 [Example 307]	> 6.00
CC[C@@H]1C(=O)N(C)c2cnc(-c3ccc[nH]3)nc2N1C1CCCC1 [Example 6]	> 6.00
CC[C@@H]1C(=O)N(C)c2cnc(-n3ccnc3-c3nccc4ccccc34)nc2N1C(C)C [Example 196]	5.00 to 6.00
CC[C@@H]1C(=O)N(C)c2cnc(-c3sc(C#N)nc3-c3ccc(F)cc3)nc2N1C(C)C [Example 354]	> 6.00
[2H]C([2H])([2H])N1C(=O)[C@H](C([2H])([2H])C([2H])([2H])[2H])N(C([2H])(C([2H])([2H])[2H])C([2H])([2H])[2H])c2nc(-n3ccnc3-c3cc(F)cc(F)c3)ncc21 [Example 178]	4.30 to 5.00
[2H]C([2H])([2H])N1C(=O)C(C([2H])([2H])C([2H])([2H])[2H])N(C([2H])(C([2H])([2H])[2H])C([2H])([2H])[2H])c2nc(-n3ccnc3-c3cccc(OC(F)(F)F)c3)ncc21 (stereo not drawn) [Example 160]	> 6.00
CCC1C(=O)N(C)c2cnc(-n3ccnc3)nc2N1c1cccc(-c2cncnc2)c1 (stereo not drawn) [Example 333]	4.30 to 5.00
CC[C@@]12CCC(=O)N1c1nc(-n3ccnc3-c3ccccc3)ncc1N(C)C2=O [Example 258]	4.30 to 5.00
CN1C(=O)[C@H](CC(F)(F)F)N(CCC(F)(F)F)c2nc(-n3ccnc3-c3ccc(F)cc3F)ncc21 [Example 294]	4.30 to 5.00
CC[C@@H]1C(=O)N(C)c2cnc(-n3ccnc3-c3cccnc3)nc2N1C1CCCC1 [Example 67]	> 6.00
CC[C@@H]1C(=O)N(C)c2cnc(-n3ccnc3-c3ccc(C(F)(F)F)cc3)nc2N1C(C)C [Example 166]	> 6.00
CC[C@@]12CCCN1c1nc(-c3cn[nH]c3-c3nccs3)ncc1N(C)C2=O [Example 338]	4.30 to 5.00
CC[C@@H]1C(=O)N(C)c2cnc(-n3cc[n+](C)c3C)nc2N1C1CCCC1 [Example 28]	< 4.30
[2H]C([2H])([2H])N1C(=O)C(C([2H])([2H])C([2H])([2H])[2H])N(C([2H])(C([2H])([2H])[2H])C([2H])([2H])[2H])c2nc(-n3ccnc3-c3cccc(F)c3)ncc21 (racemic) [Example 180]	> 6.00
CCC12CCCCCN1c1nc(-n3nccc3-c3ccccc3)ncc1N(C)C2=O (stereo not drawn) [Example 209]	5.00 to 6.00
CC[C@@H]1C(=O)N(C)c2cnc(-n3ccnc3-c3ccc(C(F)(F)F)cc3)nc2N1C1CCC1 [Example 171]	> 6.00
CC[C@@H]1C(=O)N(C)c2cnc(-n3ccnc3Cl)nc2N1C1CCCC1 [Example 292]	> 6.00

* * *

Target: UniProtKB Q9H4B4
Sequence (Q9H4B4 whole entry): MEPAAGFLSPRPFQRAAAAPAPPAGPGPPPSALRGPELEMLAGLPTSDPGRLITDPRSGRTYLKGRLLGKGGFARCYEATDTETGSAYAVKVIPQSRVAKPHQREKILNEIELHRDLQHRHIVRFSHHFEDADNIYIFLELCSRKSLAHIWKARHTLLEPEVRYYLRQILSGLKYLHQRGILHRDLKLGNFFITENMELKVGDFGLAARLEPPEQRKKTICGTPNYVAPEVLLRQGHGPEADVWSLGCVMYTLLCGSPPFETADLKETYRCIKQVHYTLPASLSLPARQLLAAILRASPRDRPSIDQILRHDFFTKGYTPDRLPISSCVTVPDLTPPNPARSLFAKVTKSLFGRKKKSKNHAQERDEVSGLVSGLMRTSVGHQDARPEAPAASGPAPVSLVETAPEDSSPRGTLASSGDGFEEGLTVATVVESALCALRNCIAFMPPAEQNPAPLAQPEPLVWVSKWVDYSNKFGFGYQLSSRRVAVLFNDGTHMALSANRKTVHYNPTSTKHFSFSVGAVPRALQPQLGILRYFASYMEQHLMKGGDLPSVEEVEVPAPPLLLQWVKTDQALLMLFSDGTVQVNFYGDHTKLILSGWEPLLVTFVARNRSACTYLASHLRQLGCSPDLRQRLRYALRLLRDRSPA
Run Description: PLK TR-FRET peptide assay, PLK3
Type: biochemical
Experimental Setup: GST-PLK3, 15 min reaction, read-out: Plk3 IC50

Molecule	IC50
CC[C@@H]1C(=O)N(C)c2cnc(-n3ccnc3-c3cncc(F)c3)nc2N1C1CCCC1	< 1 µM
CC[C@@]12CCCCN1c1nc(-n3ccnc3-c3cccc(F)c3)ncc1N(C)C2=O	10 to 50 µM
CC[C@@]12CCCN1c1nc(-n3ccnc3-c3ccc(F)c(Cl)c3)ncc1N(C)C2=O	10 to 50 µM
CC[C@@H]1C(=O)N(C)c2cnc(-c3scnc3-c3ccn[nH]3)nc2N1C(C)C	1 to 10 µM
CC[C@@H]1C(=O)N(C)c2cnc(-n3ccnc3-n3cccn3)nc2N1C1CCCC1	< 1 µM
CC[C@@H]1C(=O)N(C)c2cnc(-n3ccnc3-c3ccc(F)cc3)nc2N1CC1CC1	1 to 10 µM
CC[C@@H]1C(=O)N(C)c2cnc(-n3ccnc3N3CCCC3=O)nc2N1C1CCCC1	10 to 50 µM
CC[C@@H]1C(=O)N(C)c2cnc(-n3ccnc3-c3ccc(F)cc3F)nc2N1CCC(F)(F)F	1 to 10 µM
CC[C@@H]1C(=O)N(C)c2cnc(-n3ccnc3-c3cccc(C#N)c3)nc2N1C(C)C	10 to 50 µM
[2H]C([2H])([2H])N1C(=O)C(C([2H])([2H])C([2H])([2H])[2H])N(C([2H])(C([2H])([2H])[2H])C([2H])([2H])[2H])c2nc(-n3ccnc3-c3cccc(C(F)(F)F)c3)ncc21 (stereo not drawn)	> 50 µM
CN1C(=O)[C@H](CC(F)(F)F)N(CCC(F)(F)F)c2nc(-n3ccnc3-c3ccc(F)cc3F)ncc21	> 50 µM
CC[C@@H]1C(=O)N(C)c2cnc(-n3ccnc3-c3cccc(F)c3)nc2N1C1CCOC1 (stereo partly drawn)	1 to 10 µM
CC[C@@]12CCC(=O)N1c1nc(-n3ccnc3-c3ccccc3)ncc1N(C)C2=O	> 50 µM
CCC12CCCCN1c1nc(-n3ccnc3-c3cccc(F)c3F)ncc1N(C)C2=O (racemic)	10 to 50 µM
CC[C@@H]1C(=O)N(C)c2cnc(-n3ccnc3)nc2N1C1CC(F)(F)C1	10 to 50 µM
CC[C@@H]1C(=O)N(C)c2cnc(-c3ccncc3NC(C)=O)nc2N1C(C)C	> 50 µM
CCC1C(=O)N(C)c2cnc(-n3ccnc3-c3ccc(F)cc3)nc2N1c1cccc(C#N)c1 (stereo not drawn)	1 to 10 µM
CC[C@@H]1C(=O)N(C)c2cnc(-n3ccnc3-c3ccc(F)c(F)c3)nc2N1C1CCC(F)(F)C1 (stereo partly drawn)	1 to 10 µM
CC[C@@]12CCCN1c1nc(-n3ccnc3-c3cccc(-n4cccn4)c3)ncc1N(C)C2=O	> 50 µM
CCC1C(=O)N(C)c2cnc(-c3cn[nH]c3-c3nccs3)nc2N1c1cccc(C#N)c1 (stereo not drawn)	1 to 10 µM
CC[C@@H]1C(=O)N(C)c2cnc(-c3cnc4[nH]ccc4c3)nc2N1C1CCCC1	1 to 10 µM
CC[C@@]12CCCN1c1nc(-n3ccnc3-c3cccc(OC(F)(F)F)c3)ncc1N(C)C2=O	> 50 µM
CC[C@@H]1C(=O)N(C)c2cnc(-c3ccncc3CNC(C)=O)nc2N1C(C)C	> 50 µM
CC[C@@H]1C(=O)N(C)c2cnc(-c3ccncc3CNC(=O)OC(C)(C)C)nc2N1C1CCCC1	> 50 µM
CC[C@@H]1C(=O)N(C)c2cnc(-n3ccnc3-c3ccccc3)nc2N1C1CCC1	1 to 10 µM
CC(C)N1c2nc(-n3ccnc3-c3ccc(F)cc3)ncc2N(C)C(=O)C1(C)C	> 50 µM
[2H]C([2H])([2H])N1C(=O)C(C([2H])([2H])C([2H])([2H])[2H])N(C([2H])(C([2H])([2H])[2H])C([2H])([2H])[2H])c2nc(-n3ccnc3-c3cccc(F)c3)ncc21 (racemic)	1 to 10 µM
CC[C@@]12CCCN1c1nc(-n3ccnc3-c3cccc(F)c3)ncc1N(C)C2=O	10 to 50 µM
CC[C@@H]1C(=O)N(C)c2cnc(-c3cnoc3-c3ccc(F)cc3)nc2N1C(C)C	10 to 50 µM
CCC12CCCCCN1c1nc(-n3nccc3-c3ccccc3)ncc1N(C)C2=O (stereo not drawn)	10 to 50 µM

Cited source for all entries: patent US8541418B2
